Source of measurements: ChEMBL document CHEMBL4765276

Provide the recorded IC50 for the entries that follow.
# experimental system: Alpha-galactosidase A (Homo sapiens, UniProt P06280)
# Sequence (P06280 whole entry): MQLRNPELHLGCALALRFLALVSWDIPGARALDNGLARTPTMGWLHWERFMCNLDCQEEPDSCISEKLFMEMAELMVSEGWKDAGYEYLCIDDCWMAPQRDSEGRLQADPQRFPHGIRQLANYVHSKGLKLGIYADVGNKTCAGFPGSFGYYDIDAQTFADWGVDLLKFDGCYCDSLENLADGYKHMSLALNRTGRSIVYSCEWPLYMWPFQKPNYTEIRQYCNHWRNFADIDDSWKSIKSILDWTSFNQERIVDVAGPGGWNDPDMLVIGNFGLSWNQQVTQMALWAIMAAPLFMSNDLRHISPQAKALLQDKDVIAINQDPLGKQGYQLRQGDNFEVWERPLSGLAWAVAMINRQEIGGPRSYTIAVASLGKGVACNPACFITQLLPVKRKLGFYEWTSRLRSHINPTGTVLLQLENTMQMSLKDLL
# assay remarks: Inhibition of human recombinant lysosomal alpha-GalA using 4-methylumbelliferyl-[…] as substrate preincubated for 45 mins followed by substrate addition and measured after 30 mins by fluorescence spectrophotometric assay
Give bare numbers, in µM.

Before answering, review these 2 worked examples.
O[C@@H]1[C@H](O)CN[C@@H]1Cn1cc(CCCn2cc(COCC(COCc3cn(CCCc4cn(C[C@H]5NC[C@@H](O)[C@H]5O)nn4)nn3)(COCc3cn(CCCc4cn(C[C@H]5NC[C@@H](O)[C@H]5O)nn4)nn3)COCc3cn(CCCc4cn(C[C@H]5NC[C@@H](O)[C@H]5O)nn4)nn3)nn2)nn1 :: 142
O=C(NC(COCc1cn(C[C@H]2NC[C@@H](O)[C@H]2O)nn1)(COCc1cn(C[C@H]2NC[C@@H](O)[C@H]2O)nn1)COCc1cn(C[C@H]2NC[C@@H](O)[C@H]2O)nn1)c1cc(C(=O)NC(COCc2cn(C[C@H]3NC[C@@H](O)[C@H]3O)nn2)(COCc2cn(C[C@H]3NC[C@@H](O)[C@H]3O)nn2)COCc2cn(C[C@H]3NC[C@@H](O)[C@H]3O)nn2)cc(C(=O)NC(COCc2cn(C[C@H]3NC[C@@H](O)[C@H]3O)nn2)(COCc2cn(C[C@H]3NC[C@@H](O)[C@H]3O)nn2)COCc2cn(C[C@H]3NC[C@@H](O)[C@H]3O)nn2)c1 :: 286

API: the following record is the query input.
Q: Fill blank: measured IC50 of the molecule O[C@@H]1[C@H](O)CN[C@H]1Cn1cc(CCCn2cc(COCC(COCc3cn(CCCc4cn(C[C@@H]5NC[C@@H](O)[C@H]5O)nn4)nn3)(COCc3cn(CCCc4cn(C[C@@H]5NC[C@@H](O)[C@H]5O)nn4)nn3)COCc3cn(CCCc4cn(C[C@@H]5NC[C@@H](O)[C@H]5O)nn4)nn3)nn2)nn1 is ____.
A: 897
